target: DPP1 in HL-60 cells (Homo sapiens, UniProt P53634); assay: DPP1 Cell IC50 assay; format: cell-based; design: host or cells: HL-60 cells; conditions: 60 min pre-incubation, H-Gly-Phe-AFC substrate, average of n runs, read-out: Avg. IC50 (DPP1 Cell IC50 value ranges)
Sequence (P53634 25-463): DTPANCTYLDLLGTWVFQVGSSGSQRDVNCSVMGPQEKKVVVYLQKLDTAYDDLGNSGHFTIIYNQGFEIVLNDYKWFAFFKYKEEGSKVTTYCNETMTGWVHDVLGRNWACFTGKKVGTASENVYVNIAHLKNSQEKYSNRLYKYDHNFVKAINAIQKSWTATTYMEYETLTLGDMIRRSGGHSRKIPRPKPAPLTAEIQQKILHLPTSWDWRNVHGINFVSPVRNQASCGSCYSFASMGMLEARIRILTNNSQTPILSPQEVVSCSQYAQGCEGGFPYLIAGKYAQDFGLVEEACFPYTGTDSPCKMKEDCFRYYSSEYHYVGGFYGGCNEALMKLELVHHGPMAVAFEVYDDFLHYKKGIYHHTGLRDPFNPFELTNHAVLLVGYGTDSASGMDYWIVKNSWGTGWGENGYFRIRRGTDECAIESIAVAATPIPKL
Answer each item with its documented IC50.

// query IC50 value for entry Cn1c(=O)oc2ccc3c(c21)COc1cc(CC(C#N)NC(=O)[C@@H]2CNCCCO2)c(F)cc1-3 (mixture of isomers) [Compound C2] > 2.5 nM

// query IC50 value for entry CO[C@H]1CCO[C@H](C(=O)N[C@H](C#N)Cc2cc3c(cc2F)-c2ccc(C#N)cc2CO3)CNC1 (single isomer, unassigned) [Compound B13] < 1 nM

// query IC50 value for entry CCCN1CCC2(CC1)SCCc1ccc(-c3ccc(C[C@@H](C#N)NC(=O)[C@@H]4CNCCCO4)cc3)cc12 [Compound I3] > 2.5 nM

// query IC50 value for entry N#C[C@H](Cc1ccc(-c2ccc(S(F)(F)(F)(F)F)cc2)cc1)NC(=O)[C@@H]1CNCCCO1 [Compound 6] > 2.5 nM

// query IC50 value for entry CO[C@H]1CCO[C@H](C(=O)N[C@H](C#N)Cc2ccc(-c3ccc4c(c3)C3(CCN(C5COC5)CC3)OC4)cc2F)CNC1 [Compound F5] 1 to 2.5 nM

// query IC50 value for entry CO[C@@H]1CCNC[C@@H](C(=O)N[C@H](C#N)Cc2ccc(-c3ccc4c(c3)CCC(=O)N4C)cc2)OC1 [Compound A145] 1 to 2.5 nM

// query IC50 value for entry CO[C@@H]1CCNC[C@@H](C(=O)N[C@H](C#N)Cc2ncc(-c3ccc4c(n3)CCCN4)s2)OC1 [Compound A37] > 2.5 nM

// query IC50 value for entry CO[C@@H]1CCNC[C@@H](C(=O)N[C@H](C#N)Cc2ccc(-c3ccc4c(n3)CCCN4)cc2F)OC1 [Compound A50] 1 to 2.5 nM

// query IC50 value for entry CO[C@H]1CCO[C@H](C(=O)N[C@H](C#N)Cc2ccc(-c3ccc4oc(=O)n(C)c4c3)s2)CNC1 [Compound F3] > 2.5 nM

// query IC50 value for entry COC1CNC[C@@H](C(=O)N[C@H](C#N)Cc2ccc(-c3ccc4c(c3)CCC(=O)N4C)cc2F)OC1 (stereo partly shown) [Compound A152] < 1 nM

// query IC50 value for entry CO[C@@H]1CCNC[C@@H](C(=O)N[C@H](C#N)Cc2ccc(-c3ccc4c(n3)CCCN4)cc2)OC1 [Compound A33] > 2.5 nM

// query IC50 value for entry N#C[C@H](Cc1ccc(C23CCC(C#N)(CC2)CC3)cc1)NC(=O)[C@@H]1CNCCCO1 [Compound 4] > 2.5 nM

// query IC50 value for entry CCCCOCCn1c(=O)oc2ccc(-c3ccc(C[C@@H](C#N)NC(=O)[C@@H]4CNC[C@@H](OC)CCO4)cc3)cc21 [Compound F2] > 2.5 nM

// query IC50 value for entry N#C[C@H](Cc1ccc(-c2ccc3c(c2)CCS3)cc1)NC(=O)[C@@H]1CNCCCO1 [Compound A4] > 2.5 nM

// query IC50 value for entry N#C[C@H](Cc1ccc(-c2ccc3c(c2)[C@]2(CCCN(c4nccs4)C2)COC3)cc1)NC(=O)[C@@H]1CNCCCO1 [Compound I20] > 2.5 nM

// query IC50 value for entry N#C[C@H](Cc1ccc(-c2cc3n(c2)CCCNC3=O)cc1)NC(=O)[C@@H]1CNCCCO1 [Compound A12] > 2.5 nM

// query IC50 value for entry CO[C@@H]1CCNC[C@@H](C(=O)NC(C#N)Cc2cnc(-c3ccc4c(F)nn(C)c4c3)s2)OC1 (mixture of isomers) [Compound A38] 1 to 2.5 nM

// query IC50 value for entry Cn1c(=O)oc2cc3c(cc21)-c1cc(F)c(CC(C#N)NC(=O)[C@@H]2CNCCCCO2)cc1OC3 (stereo partly shown) [Compound C5] 1 to 2.5 nM

// query IC50 value for entry CO[C@@H]1CNC[C@@H](C(=O)N[C@H](C#N)Cc2ccc(-c3ccc4nnn(C)c4c3)cc2)OC1 [Compound H12-B] 1 to 2.5 nM

// query IC50 value for entry CO[C@@H]1CCNC[C@@H](C(=O)N[C@H](C#N)Cc2cc3c(cc2F)-c2cc(C4COC4)c(F)cc2CO3)OC1 [Compound B12] 1 to 2.5 nM

// query IC50 value for entry CO[C@@H]1CNC[C@@H](C(=O)N[C@H](C#N)Cc2ccc(-c3cc4c(C)nc(C)cn4c3)cc2F)OC1 [Compound A88-A] > 2.5 nM

// query IC50 value for entry Cc1ncc(C)n2cc(-c3ccc(C[C@@H](C#N)NC(=O)[C@@H]4CNCCCO4)cc3)cc12 [Compound A63] > 2.5 nM

// query IC50 value for entry CN1C(=O)CCc2cc(-c3ccc(C[C@@H](C#N)NC(=O)[C@@H]4CNCCCO4)cc3)ccc21 [Compound A21] > 2.5 nM

// query IC50 value for entry Cn1c(=O)oc2cc3c(cc21)-c1cc(F)c(C[C@H](C#N)NC(=O)[C@@H]2CNCCCO2)cc1OC3 [Compound C1-A] > 2.5 nM

// query IC50 value for entry Cn1c(=O)oc2cc3c(cc21)-c1cc(F)c(C[C@@H](C#N)NC(=O)[C@@H]2CNCCCO2)cc1OC3 [Compound C1-B] 1 to 2.5 nM

// query IC50 value for entry N#C[C@H](Cc1ccc(-c2cnc3c(c2)NCCC3)cc1)NC(=O)[C@@H]1CNCCCO1 [Compound A41] > 2.5 nM

// query IC50 value for entry COC1CNC[C@@H](C(=O)N[C@H](C#N)Cc2ccc(-c3ccc4c(F)nn(C)c4c3)cc2)OC1 (stereo partly shown) [Compound A158] < 1 nM

// query IC50 value for entry CO[C@H]1CCO[C@H](C(=O)N[C@H](C#N)Cc2ccc(-c3ccc4c(c3)CCC(=O)N4C)cc2)CNC1 [Compound A147] 1 to 2.5 nM

Cited source: patent US20260008760A1
